# experimentalTarget: heparanase (Homo sapiens, UniProt Q9Y251)
# Sequence (Q9Y251 158-543 limits assumed): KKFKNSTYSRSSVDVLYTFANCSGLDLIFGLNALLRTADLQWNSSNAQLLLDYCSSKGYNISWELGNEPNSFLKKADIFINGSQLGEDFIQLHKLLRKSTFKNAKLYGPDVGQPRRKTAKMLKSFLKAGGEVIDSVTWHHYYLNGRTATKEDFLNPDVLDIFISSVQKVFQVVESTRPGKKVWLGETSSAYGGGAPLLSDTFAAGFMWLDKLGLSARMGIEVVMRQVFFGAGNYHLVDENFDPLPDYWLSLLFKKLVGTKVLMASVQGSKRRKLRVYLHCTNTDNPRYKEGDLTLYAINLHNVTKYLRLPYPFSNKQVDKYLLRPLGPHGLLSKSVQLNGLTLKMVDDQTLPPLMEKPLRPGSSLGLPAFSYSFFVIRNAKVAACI
# Sequence (Q9Y251 36-109 limits assumed): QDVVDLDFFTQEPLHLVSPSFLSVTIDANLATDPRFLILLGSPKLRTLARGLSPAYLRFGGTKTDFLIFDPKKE
# protocolNotes: AGA*IA assay: heparanase-catalyzed fondaparinux cleavage, colorimetric (WST-1)
# Type: biochemical
# conditionsUsed: Table 2; classes as in Table 1; read-out: AGA*IA assay
assayReadout: IC50

Use these answered entries as a reference point.
{"compound": "Cn1cc(NC(=O)Nc2cc(C(=O)Nc3cc(C(=O)Nc4cccc(CC(=O)O)c4)n(C)c3)n(C)c2)cc1C(=O)Nc1cc(C(=O)Nc2cccc(CC(=O)O)c2)n(C)c1 [Compound 17h]", "experimentalTarget": "heparanase (Homo sapiens, UniProt Q9Y251)", "assayReadout": "IC50", "val": "500 to 990 nM"}
{"compound": "Cn1cc(NC(=O)Nc2cc(C(=O)Nc3cc(C(=O)Nc4cccc(CC(=O)NCC(=O)O)c4)n(C)c3)n(C)c2)cc1C(=O)Nc1cc(C(=O)Nc2cccc(CC(=O)NCC(=O)O)c2)n(C)c1 [Compound 18]", "experimentalTarget": "heparanase (Homo sapiens, UniProt Q9Y251)", "assayReadout": "IC50", "val": "500 to 990 nM"}

Prompt: # get_value(readout= IC50, system= heparanase (Homo sapiens, UniProt Q9Y251)) for Cn1cc(NC(=O)c2cccc(NC(=O)Nc3cccc(C(=O)Nc4cc(C(=O)Nc5cccc(CC(=O)N[C@@H](Cc6ccccc6)C(=O)O)c5)n(C)c4)c3)c2)cc1C(=O)Nc1cccc(CC(=O)N[C@@H](Cc2ccccc2)C(=O)O)c1 [Compound 12e]
Response: 50 to 490 nM

Prompt: Now try Cn1cc(NC(=O)Nc2cc(C(=O)Nc3cc(C(=O)Nc4cccc(CC(=O)N[C@@H](Cc5ccccc5)C(=O)O)c4)n(C)c3)n(C)c2)cc1C(=O)Nc1cc(C(=O)Nc2cccc(CC(=O)N[C@@H](Cc3ccccc3)C(=O)O)c2)n(C)c1 [Compound 17e] .
Response: 500 to 990 nM

---

# experimentalTarget: heparanase (Homo sapiens, UniProt Q9Y251)
# protocolNotes: AGA*IA assay: heparanase-catalyzed fondaparinux cleavage, colorimetric (WST-1)
# Type: biochemical
# conditionsUsed: Table 1; range activity classes, AGA*IA test on Fondaparinux; read-out: AGAIA assay IC50
# Procedure: All compounds were tested in a simple, accurate and robust microplate assay based on the cleavage of the synthetic heparin fragment, the pentasaccharide Fondaparinux (AGA*IA). […] Assay was carried out with 100 µl/well of assay solution containing 40 mM sodium acetate buffer (pH 5.0), 100 µM fondaparinux, 2.5 nM heparanase and serial dilutions of test compounds (tested in triplicate). […] Then, the absorbance at 560 nm was measured through a microplate reader (Victor 3, Perkin Elmer). […]
Counter-ions that a name gives are not always drawn.
assayReadout: IC50

# example entries with known answers
{"compound": "Cn1cc(NC(=O)c2cc(NC(=O)Nc3cc(C(=O)Nc4cc(C(=O)Nc5cccc(CC(=O)NCC(=O)O)c5)n(C)c4)cc(C(F)(F)F)c3)cc(C(F)(F)F)c2)cc1C(=O)Nc1cccc(CC(=O)NCC(=O)O)c1 [Compound 13c]", "experimentalTarget": "heparanase (Homo sapiens, UniProt Q9Y251)", "IC50": "50 to 490 nM"}
{"compound": "Cn1cc(NC(=O)Nc2cc(C(=O)Nc3cc(C(=O)Nc4cccc(CC(=O)N[C@@H](CCCCN)C(=O)O)c4)n(C)c3)n(C)c2)cc1C(=O)Nc1cc(C(=O)Nc2cccc(CC(=O)N[C@@H](CCCCN)C(=O)O)c2)n(C)c1 [Compound 35c, dihydrochloride]", "experimentalTarget": "heparanase (Homo sapiens, UniProt Q9Y251)", "IC50": "1000 to 20000 nM"}
{"compound": "CC(C)C[C@H](NC(=O)Cc1cccc(NC(=O)c2cc(NC(=O)c3ccc(Oc4ccc(C(=O)Nc5cc(C(=O)Nc6cccc(CC(=O)N[C@@H](CC(C)C)B(O)O)c6)n(C)c5)cc4)cc3)cn2C)c1)B(O)O", "experimentalTarget": "heparanase (Homo sapiens, UniProt Q9Y251)", "IC50": "1000 to 20000 nM"}
{"compound": "CC(C)CC(NC(=O)Cc1cccc(NC(=O)c2cc(NC(=O)c3cc(NC(=O)Nc4cc(C(=O)Nc5cc(C(=O)Nc6cccc(CC(=O)NC(CC(C)C)C(=O)O)c6)n(C)c5)n(C)c4)cn3C)cn2C)c1)C(=O)O (centres unmarked) [Compound 17a]", "experimentalTarget": "heparanase (Homo sapiens, UniProt Q9Y251)", "IC50": "1000 to 20000 nM"}
{"compound": "Cn1cc(NC(=O)Nc2cc(C(=O)Nc3cc(C(=O)Nc4cccc(CC(=O)NCC(=O)O)c4)n(C)c3)n(C)c2)cc1C(=O)Nc1cc(C(=O)Nc2cccc(CC(=O)NCC(=O)O)c2)n(C)c1", "experimentalTarget": "heparanase (Homo sapiens, UniProt Q9Y251)", "IC50": "500 to 990 nM"}

Prompt: For the compound "CC(C)C[C@H](NC(=O)Cc1cccc(NC(=O)c2cc(NC(=O)c3cc(NC(=O)Nc4cc(C(=O)Nc5cc(C(=O)Nc6cccc(CC(=O)N[C@@H](CC(C)C)B(O)O)c6)n(C)c5)n(C)c4)cn3C)cn2C)c1)B(O)O" , what IC50 is on record?
Response: 1000 to 20000 nM

Prompt: For Cn1cc(NC(=O)c2ccc(Oc3ccc(C(=O)Nc4cc(C(=O)Nc5cccc(CC(=O)N[C@@H](CCCCN)C(=O)O)c5)n(C)c4)cc3)cc2)cc1C(=O)Nc1cccc(CC(=O)N[C@@H](CCCCN)C(=O)O)c1 [Compound 36c, dihydrochloride] then?
Response: 1000 to 20000 nM

Prompt: Would you mind doing Cn1cc(NC(=O)Nc2cc(C(=O)Nc3cc(C(=O)Nc4cccc(CC(=O)O)c4)n(C)c3)n(C)c2)cc1C(=O)Nc1cc(C(=O)Nc2cccc(CC(=O)O)c2)n(C)c1 [Compound 17h] as well?
Response: 500 to 990 nM
